- Study System: STK16 (human)
- Assay Info: KINOMEscan competition binding
- Condition Description: compound 10.0 µM
Assay Endpoint: kinase still bound, per cent of control (%)

[[record]]
molecule = "COc1cc(C(=O)NC2CCN(C)CC2)ccc1Nc1ncc2c(n1)N(C1CCCC1)C(C)CC(=O)N2C (stereo not given)"
study_system = "STK16 (human)"
result_number = 100

[[record]]
molecule = "C=CC(=O)Nc1cccc(Oc2nc(Nc3ccc(N4CCN(C)CC4)cc3OC)ncc2Cl)c1"
study_system = "STK16 (human)"
result_number = 27

[[record]]
molecule = "Nc1ccc(-c2ccc3ncc4ccc(=O)n(-c5cccc(C(F)(F)F)c5)c4c3c2)cn1"
study_system = "STK16 (human)"
result_number = 59

[[record]]
molecule = "N#Cc1c(NC(=O)c2cccc3ccccc23)sc2c1CCCC2"
study_system = "STK16 (human)"
result_number = 89

[[record]]
molecule = "Cn1c(=O)n(-c2ccc(C(C)(C)C#N)cc2)c2c3cc(-c4cnc5ccccc5c4)ccc3ncc21"
study_system = "STK16 (human)"
result_number = 100

[[record]]
molecule = "COc1cc(C(=O)NC2CCN(C)CC2)ccc1Nc1ncc2c(n1)N(C1CCCC1)CCC(=O)N2C(C)C"
study_system = "STK16 (human)"
result_number = 100

[[record]]
molecule = "CN(C)C/C=C/C(=O)Nc1cccc(Nc2ncc3c(n2)N(C)c2ccccc2C(=O)N3C)c1"
study_system = "STK16 (human)"
result_number = 8.4

[[record]]
molecule = "OCCCNc1cc(-c2ccnc(Nc3cccc(Cl)c3)n2)ccn1"
study_system = "STK16 (human)"
result_number = 100

[[record]]
molecule = "CCCS(=O)(=O)Nc1ccc(F)c(C(=O)c2c[nH]c3ncc(-c4ccc(Cl)cc4)cc23)c1F"
study_system = "STK16 (human)"
result_number = 84

[[record]]
molecule = "Cc1ccc(C(=O)Nc2cccc(C(F)(F)F)c2)cc1Nc1cncc(C(N)=O)c1"
study_system = "STK16 (human)"
result_number = 100

[[record]]
molecule = "Cc1cc([C@@H](C)Nc2ccccc2C(=O)O)c2nc(N3CCOCC3)cc(=O)n2c1"
study_system = "STK16 (human)"
result_number = 77

[[record]]
molecule = "Cc1ccc(NC(=O)c2cccc(C(C)(C)C#N)c2)cc1Nc1ccc2ncn(C)c(=O)c2c1"
study_system = "STK16 (human)"
result_number = 83

[[record]]
molecule = "COc1cc(N2CCN(C)CC2)ccc1Nc1nc(N)c(C(=O)c2c(Cl)cccc2Cl)s1"
study_system = "STK16 (human)"
result_number = 90

[[record]]
molecule = "O=C(O)c1ccc(Nc2ncc3c(n2)-c2ccc(Cl)cc2C(c2c(F)cccc2F)=NC3)cc1"
study_system = "STK16 (human)"
result_number = 30

[[record]]
molecule = "CCN1CCN(Cc2ccc(Nc3ncc4c(n3)N(C)c3ccccc3C(=O)N4C)cc2C(F)(F)F)CC1"
study_system = "STK16 (human)"
result_number = 15

[[record]]
molecule = "CC[C@@H]1C(=O)N(C)c2cnc(Nc3ccc(C(=O)NC4CCN(C)CC4)cc3OC)nc2N1C1CCCC1"
study_system = "STK16 (human)"
result_number = 14

[[record]]
molecule = "CCC(=O)N1CCN(c2ccc(-n3c(=O)ccc4cnc5ccc(-c6cnc7ccccc7c6)cc5c43)cc2C(F)(F)F)CC1"
study_system = "STK16 (human)"
result_number = 18

[[record]]
molecule = "C[C@@H](Oc1cc(-n2cnc3ccc(CN4CCN(C)CC4)cc32)sc1C(N)=O)c1ccccc1C(F)(F)F"
study_system = "STK16 (human)"
result_number = 65

[[record]]
molecule = "O=C(NC1CC1)c1cccc(-c2ccc3c(NC(=O)C4CC4)n[nH]c3c2)c1"
study_system = "STK16 (human)"
result_number = 3

[[record]]
molecule = "O=C1Nc2ccc(I)cc2/C1=C/c1cc(Br)c(O)c(Br)c1"
study_system = "STK16 (human)"
result_number = 90

[[record]]
molecule = "Cc1ccc2nc(NCCN)c3ncc(C)n3c2c1"
study_system = "STK16 (human)"
result_number = 100

[[record]]
molecule = "O=C(NOC[C@H](O)CO)c1ccc(F)c(F)c1Nc1ccc(I)cc1F"
study_system = "STK16 (human)"
result_number = 99

[[record]]
molecule = "C=CC(=O)Nc1cc(NC(=O)c2ccc(C)c(NC(=O)c3ccno3)c2)cc(C(F)(F)F)c1"
study_system = "STK16 (human)"
result_number = 100

[[record]]
molecule = "C=CC(=O)Nc1cccc(Nc2nc(N[C@H]3CC[C@H](N(C)C)CC3)nc3c2ncn3C(C)C)c1"
study_system = "STK16 (human)"
result_number = 72

[[record]]
molecule = "CCOc1cc2ncc(C#N)c(Nc3ccc(OCc4ccccn4)c(Cl)c3)c2cc1NC(=O)/C=C/CN(C)C"
study_system = "STK16 (human)"
result_number = 96


Data provenance is the kinase profiling compilation of Christmann-Franck et al. (2016).
